Test system: alternative pathway of complement (ZAS activated)
Assay: In vitro complement activation of human serum by Zymosan A (ZAS), comparison of meglumine analogues
Format: biochemical
Conditions: ZAS 2 and 1 mg/mL serum, test substance 5.3 mg/mL serum, FIG. 6
Readout label: inhibition of in vitro complement activation induced by ZAS

Compound	Value observed
CNCC(O)CO (stereo not shown)	inhibited
CNC[C@H](O)[C@@H](O)[C@H](O)[C@H](O)CO	inhibited
CNCCO	inhibited

All figures here come from patent US7060731B2.
